# System: MBNL-N-M12 F36A;Y68A, Q9NR56-5
# Sequence: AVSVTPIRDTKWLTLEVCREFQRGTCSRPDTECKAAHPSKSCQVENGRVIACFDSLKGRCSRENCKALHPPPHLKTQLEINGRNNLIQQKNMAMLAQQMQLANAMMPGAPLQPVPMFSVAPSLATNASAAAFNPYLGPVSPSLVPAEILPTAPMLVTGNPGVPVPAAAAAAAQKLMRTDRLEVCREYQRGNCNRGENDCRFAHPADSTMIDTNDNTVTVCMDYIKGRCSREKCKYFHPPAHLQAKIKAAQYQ
# assay_info: EMSA
# condition_label: no stable complex up to 2 uM; EMSA: 10 mM HEPES pH 7.9, 3 mM MgCl2, 10 uM ZnCl2, 5% glycerol, 1 mM DTT, 20 ug/ml rRNA, 10 fmol RNA in 5 ul, 30 C 15 min, then heparin 5 min; 5% PAGE at 4 C …
pKd: −log10 of the molar value.
Assignment: determine reported pKd for the given sequences.

Examples from the recorded data:
{"sequence_input": "GGGAGACAAGCUUGAGCUGGAUGCCGCCUCUGCUGCUGC [Tpm1 Dugc RNA]", "result": "< 5.70"}
{"sequence_input": "GGGAGACAAGCUUUGCAAACUGUUAAUCUCAACUAACUGCCGCUUAAAUAAUUAGUGCAGCUUUUAACUACUGGUUCUGUCCCAACUGGCUACUUGUGCCUAAAGCCCAAAGAAUU [Vldlr RNA]", "result": "< 5.70"}

For the next question, use this sequence.
Fill in: pKd of GGGAGACAAGCUUAAGUCUACGCACCCUCAACCCGCACCUUGCGGGAUCACGCUGCCUGCUGCACCCCACCCCCUUCCCCCUUCCUUCCCCCCACCCCCGUACUCCACUGCCAACUCCCAG [Tpm1 URE RNA] is ___ < 5.70
